Parameter: Percent Changes in Binding Activity PT/asialo-fetuin. Scope: all listed entries.
ASSAYED_TARGET: PT-biotin binding to asialofetuin (Bos taurus, UniProt P12763)
Construct: made in house
Sequence (P12763 19-359): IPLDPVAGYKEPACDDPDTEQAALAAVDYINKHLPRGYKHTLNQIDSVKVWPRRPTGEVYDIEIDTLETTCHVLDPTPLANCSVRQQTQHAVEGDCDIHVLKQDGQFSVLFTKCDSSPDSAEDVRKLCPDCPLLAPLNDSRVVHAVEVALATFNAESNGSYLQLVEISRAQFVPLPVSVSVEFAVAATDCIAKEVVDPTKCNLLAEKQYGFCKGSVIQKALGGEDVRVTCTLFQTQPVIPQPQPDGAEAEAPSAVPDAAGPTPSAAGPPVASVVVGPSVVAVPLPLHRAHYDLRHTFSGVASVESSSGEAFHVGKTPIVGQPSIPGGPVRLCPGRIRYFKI
PROTOCOL_SUMMARY: PT-biotin binding to asialofetuin, binding inhibition assay
Design: species or system Bordetella pertussis
CONDITION_DESCRIPTION: peptide mg/mL: S2PL 1.2, ACS2P1 1.0, S2P2 1.1, S2P3 0.51, S2P4 0.98, S2P6 0.85, S3P1 3.2, S3P2 3.1, S3P3 4.5, S3P4 3.3, S3P5 0.48, SPYGRC 4.4; + enhancement, − inhibition
Method: Peptides ranging in concentration from 0.5 to 4.5 mg/ml in PBS (40 μl) were added to each well and PT-biotin (10 μl containing 10 ng in PBS) was then added to the microtiter wells. […] Horseradish peroxidase-conjugated avidin (100 μl, 1/3000 dilution in PBST to a concentration of 0.3 μg/ml) was then added to the wells, and the plates were incubated at ambient temperature for 1 hour. […] Color development was recorded at 405 nm using a Titertek Multiskan MC plate reader. […]
RECORDED_METRIC: Percent Changes in Binding Activity PT/asialo-fetuin

SUBSTANCE: AGFIYRETFCITTIYKTGQPAADHYYSKVTA [Peptide S3P4]
VALUE_OBSERVED: +75 ± 50%
--
SUBSTANCE: SPYGRC-CO—NH2
VALUE_OBSERVED: +7 ± 9%
--
SUBSTANCE: PKALFTQQGGAYGRC [Peptide S3P1]
VALUE_OBSERVED: +45 ± 16%
--
SUBSTANCE: YDGKYWSMYSRLRKMLY [Peptide S2P4]
VALUE_OBSERVED: −3(1) Percent
--
SUBSTANCE: Ac-PQEQITQHGSPYGRC-NH2 [ACS2P1]
VALUE_OBSERVED: +190 ± 23%
--
SUBSTANCE: PQEQITQHGSPYGRC [Peptide S2P1]
VALUE_OBSERVED: +113(1) Percent
--
SUBSTANCE: CITTIYKTGQPAADHYYSKVTA [Peptide S3P3]
VALUE_OBSERVED: −28 ± 7%
--
SUBSTANCE: CASPYEGRYRDMYDALRRLLY [Peptide S3P5]
VALUE_OBSERVED: −26 ± 10%
--
SUBSTANCE: VAPGIVIPPKALFTQQGGAYGRC [Peptide S3P2]
VALUE_OBSERVED: +82 ± 11%

###

ASSAYED_TARGET: MAL-biotin binding to fetuin (Bos taurus, UniProt P12763)
Construct: purchased Sigma Chemical Company (fetuin); Boehringer Mannheim (MAL-biotin)
PROTOCOL_SUMMARY: MAL-biotin binding to fetuin, binding inhibition assay
Set-up: species or system Maackia amurensis
CONDITION_DESCRIPTION: peptide mg/mL: S2PL 1.2, ACS2P1 1.0, S2(14-2.3) 1.0, S2P2 1.1, S2P3 0.51, S2P4 0.98, S2P6 0.85, S3P1 3.2, S3P2 3.1, S3P3 4.5, S3P4 3.3, S3P5 0.48, S3P9a 1.7, SPYGRC 4.4, S2(WGA) 1.0, WGA (62-73) 1.0; + enhancement, − inhibition
Parameter: Percent Changes in Binding Activity MAL/fetuin. Scope: all listed entries.
RECORDED_METRIC: Percent Changes in Binding Activity MAL/fetuin

SUBSTANCE: CASPYEGRYRDMYDALRRLLY [Peptide S3P5]
VALUE_OBSERVED: +3 ± 6%
//
SUBSTANCE: Ac-PQEQITQHGSPYGRC-NH2 [ACS2P1]
VALUE_OBSERVED: +16 ± 9%
//
SUBSTANCE: VAPGIVIPPKALFTQQGGAYGRC [Peptide S3P2]
VALUE_OBSERVED: +12 ± 16%
//
SUBSTANCE: AGFIYRETFCITTIYKTGQPAADHYYSKVTA [Peptide S3P4]
VALUE_OBSERVED: +7 ± 1%
//
SUBSTANCE: PQEQITQHGSQYGYC [S2 (WGA)]
VALUE_OBSERVED: +22 ± 3%

###

ASSAYED_TARGET: ACS2P1-biotin binding to asialofetuin (Bos taurus)
Construct: made in house
Sequence (P12763 19-359): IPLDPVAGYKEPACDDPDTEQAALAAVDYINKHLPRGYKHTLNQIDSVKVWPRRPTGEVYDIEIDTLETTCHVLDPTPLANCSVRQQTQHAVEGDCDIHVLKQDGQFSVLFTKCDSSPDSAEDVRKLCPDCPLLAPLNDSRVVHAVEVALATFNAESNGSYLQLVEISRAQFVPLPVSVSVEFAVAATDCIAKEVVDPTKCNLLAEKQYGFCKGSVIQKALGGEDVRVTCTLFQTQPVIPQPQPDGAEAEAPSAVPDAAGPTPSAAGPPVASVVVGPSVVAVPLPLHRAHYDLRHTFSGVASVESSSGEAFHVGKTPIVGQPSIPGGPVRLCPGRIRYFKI
PROTOCOL_SUMMARY: Screening of S2 and S3 peptides for inhibition of ACS2P1-biotin binding to asialofetuin
CONDITION_DESCRIPTION: peptide μM: ACS2P1 4.1, S2P2 42.5, SPYGRC 5520, S2P3 22.4, S2P4 6.0, S2P6 319, S3P1 1142, S3P2 934, S3P3 16.1, S3P4 6.4, S3P5 22.5; ACS2P1-biotin 0.1 μg; − inhibition, + enhancement
Parameter: Percent Change in Binding Activity Asialofetuin. Scope: all listed entries.
RECORDED_METRIC: Percent Change in Binding Activity Asialofetuin

SUBSTANCE: AGFIYRETFCITTIYKTGQPAADHYYSKVTA [Peptide S3P4]
VALUE_OBSERVED: +26 ± 2%
--
SUBSTANCE: CASPYEGRYRDMYDALRRLLY [Peptide S3P5]
VALUE_OBSERVED: −17 ± 8%
--
SUBSTANCE: PKALFTQQGGAYGRC [Peptide S3P1]
VALUE_OBSERVED: +4 ± 0%
--
SUBSTANCE: Ac-PQEQITQHGSPYGRC-NH2 [ACS2P1]
VALUE_OBSERVED: +101 ± 2%
--
SUBSTANCE: CITTIYKTGQPAADHYYSKVTA [Peptide S3P3]
VALUE_OBSERVED: −10 ± 11%
--
SUBSTANCE: YDGKYWSMYSRLRKMLY [Peptide S2P4]
VALUE_OBSERVED: +2 ± 4%
--
SUBSTANCE: SPYGRC-CO—NH2
VALUE_OBSERVED: −54 ± 3%
--
SUBSTANCE: VAPGIVIPPKALFTQQGGAYGRC [Peptide S3P2]
VALUE_OBSERVED: +12 ± 16%

###

ASSAYED_TARGET: WGA-biotin binding to fetuin (Bos taurus)
PROTOCOL_SUMMARY: biochemical
Protocol: The solution was removed by aspiration and replaced with 100 μl of 1% BSA in PBS containing 0.05% Tween 20 (PBST). After incubation for 2-4 hours at room temperature, the microtiter wells were washed four times with 300 μl of PBST. […] Color development was recorded at 405 nm using a Titertek Multiskan MC plate reader. Maximum binding was determined in the absence of peptide, and background binding was measured in wells coated with BSA only. […]
pIC50: −log10 of the molar value.

SUBSTANCE: H-SQYGYCGFGAEY-OH [WGA (62-73)]
pIC50: 2.47

###

ASSAYED_TARGET: SNA-biotin binding to fetuin (Bos taurus, UniProt P12763)
PROTOCOL_SUMMARY: biochemical
CONDITION_DESCRIPTION: peptide mg/mL: S2PL 1.2, ACS2P1 1.0, S2(14-2.3) 1.0, S2P2 1.1, S2P3 0.51, S2P4 0.98, S2P6 0.85, S3P1 3.2, S3P2 3.1, S3P3 4.5, S3P4 3.3, S3P5 0.48, S3P9a 1.7, SPYGRC 4.4, S2(WGA) 1.0, WGA (62-73) 1.0; + enhancement, − inhibition
RECORDED_METRIC: Percent Changes in Binding Activity SNA/fetuin (%)

SUBSTANCE: H-SQYGYCGFGAEY-OH [WGA (62-73)]
VALUE_OBSERVED: −3

SUBSTANCE: PQEQITQHGSQYGYC [S2 (WGA)]
VALUE_OBSERVED: 0

SUBSTANCE: PKALFTQQGGAYGRC [Peptide S3P1]
VALUE_OBSERVED: −2

SUBSTANCE: SPYGRC-CO—NH2
VALUE_OBSERVED: −2

SUBSTANCE: PQEQITQHGSPYGRC [Peptide S2P1]
VALUE_OBSERVED: −5
